Assay: Cytotoxicity against human MT4 cells […] assessed as cell growth inhibition after 5 days by MTT assay
Type: cell-based
The following ranges of CC50 at 120 h define the classes used here: low group (below 20 µg/mL), middle group (20 µg/mL to below 40 µg/mL), high group (40 µg/mL or more)

Which class does `Fc1ccc(-c2nc3cc(F)c(Cl)cc3nc2-c2ccc(F)cc2)cc1` fall in?
low group

Which class does `Cc1nc2cc(F)c(Cl)cc2nc1C` fall in?
high group

Which class does `Nc1nc2cc(F)c(Cl)cc2nc1N` fall in?
middle group

Which class does Cc1cn([C@H]2C[C@H](N=[N+]=[N-])[C@@H](CO)O2)c(=O)[nH]c1=O [ZIDOVUDINE] fall in?
low group

Which class does `COc1ccc(-c2nc3cc(F)c(Cl)cc3nc2-c2ccc(OC)cc2)cc1` fall in?
middle group

Which class does `Cc1ccc(-c2nc3cc(F)c(Cl)cc3nc2-c2ccc(C)cc2)cc1` fall in?
middle group

Which class does `Fc1cc2nc(-c3ccccc3)c(-c3ccccc3)nc2cc1Cl` fall in?
low group

Which class does `Fc1cc2nccnc2cc1Cl` fall in?
high group
